# maps each entry to its Papp
Assay: Membrane permeability test of cyclic peptides (Caco-2, modified/improved method of WO 2018/124162)
Settings: human, Caco-2, Caco-2, Papp, membrane permeability; cyclic peptides comprising MeAbu(pip-4-F2), MeAbu(Mor), Ser(Et-2-Mor), MeAbu(pip-3-F2) or Abu(5-Oxo-Odz) (Table 29)
*1 amine or outer side, *2 acyl side, *3 side chain or, on linkers, in order; H or OH if unused. Where a SMILES comes first, the peptide text is derived from it. Bridges are numbered along the chain shown (N, C = ends). [ ]: non-standard residue; d: D form. The star is where a group is joined. X4 = O=C(C(CCc1noc(=O)[nH]1)N[*:1])[*:2]; Ethyl(2-morpholino) = C1CN(CC*)CCO1; NMeF = CN[C@@H](Cc1ccccc1)C(=O)O; NMeGABA = CN(CCCC(=O)[*:2])[*:1]; NMeL = CN[C@@H](CC(C)C)C(=O)O; NMeAbu = CC[C@H](NC)C(=O)O; Piperidide = C1CCN(*)CC1; NBuGly = CCCCNCC(=O)O; tBu = CC(C)(C)*

| compound | Papp |
| --- | --- |
| CC[C@H](C)[C@@H]1NC(=O)[C@H](CC(C)C)N(C)C(=O)CCCN(C)C(=O)C[C@@H](C(=O)N2CCCCC2)NC(=O)[C@H](CC(C)C)N(C)C(=O)[C@H](CC(C)C)N(C)C(=O)[C@H](COCCN2CCOCC2)NC(=O)[C@H](CC(C)C)N(C)C(=O)[C@H](COC(C)(C)C)NC(=O)[C@H](CC)N(C)C(=O)[C@H](Cc2ccccc2)N(C)C1=O [pd485] ([NMeGABA][NMeL]I[NMeF][NMeAbu]S(tBu)[NMeL]S(Ethyl(2-morpholino))[NMeL][NMeL]D-Piperidide; lactam N-11) | 1.2 ×10⁻⁶ cm/s |
| CCCCN1CC(=O)N(C)[C@@H](CC(C)C)C(=O)N[C@H](C(=O)N2CCCCC2)CC(=O)N(C)[C@@H](CC)C(=O)N[C@@H](CC(C)C)C(=O)N(C)[C@@H](CC(C)C)C(=O)N(C)[C@@H](Cc2ccccc2)C(=O)NC(CCc2noc(=O)[nH]2)C(=O)N(C)[C@@H](CC(C)C)C(=O)N(C)[C@@H](CC(C)C)C(=O)N[C@@H]([C@@H](C)O)C1=O (stereo partly drawn) [pd487] ([NMeAbu]L[NMeL][NMeF][X4][NMeL][NMeL]T[NBuGly][NMeL]D-Piperidide; lactam N-11) | 2.2 ×10⁻⁶ cm/s |
